Molecular target: FLT3 (F594_R595 ins R) (Homo sapiens, UniProt P36888, INS594R)
Sequence (P36888 with tags, fused parts or gaps INS594R limits assumed): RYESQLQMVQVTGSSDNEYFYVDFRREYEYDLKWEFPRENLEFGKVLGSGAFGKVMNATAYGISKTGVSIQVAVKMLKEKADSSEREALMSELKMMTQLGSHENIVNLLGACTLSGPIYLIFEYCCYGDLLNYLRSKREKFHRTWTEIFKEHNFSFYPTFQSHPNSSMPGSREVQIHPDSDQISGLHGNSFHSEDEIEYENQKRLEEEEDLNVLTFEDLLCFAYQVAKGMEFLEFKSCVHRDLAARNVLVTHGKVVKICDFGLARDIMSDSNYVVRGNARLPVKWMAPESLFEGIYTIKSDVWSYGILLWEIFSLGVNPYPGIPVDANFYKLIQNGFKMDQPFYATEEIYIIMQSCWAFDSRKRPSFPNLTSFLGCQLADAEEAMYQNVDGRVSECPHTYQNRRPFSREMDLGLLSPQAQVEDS
Assay: Inhibitory activity against FLT3 mutants
Settings: insertion of 1 amino acid
assay-endpoint: IC50 (nM)
Express the result in nM but write the number alone.

Any idea what its IC50 is? The molecule is Cc1oncc1C(=O)Nc1ccc2cnc(-c3cc(N4CCN(C)CC4)cc(C(F)(F)F)c3)nc2c1
524

---

Reported pIC50 values follow for various compounds
Target: FLT (ITD) (Homo sapiens)
Assay: FLT (ITD) enzyme activity (IC50)
Format: biochemical
Conditions: read-out: FLT (ITD) IC50
pIC50: −log10 of the molar value.

Any idea what its pIC50 is? The compound is Cc1oncc1C(=O)Nc1ccc2cnc(-c3cc(N4CCN(C)CC4)cc(C(F)(F)F)c3)nc2c1 [Compound 7d]
> 5.52
